FYI, the data here is from patent US20260325540A1.

- target.under.test: SARS-CoV-2 3CLpro (Severe acute respiratory syndrome coronavirus 2, UniProt P0DTD1)
- procedure.details: FRET based protease assay, SARS-CoV-2 3CL

{"columns": ["compound", "target.under.test", "IC50"],
 "data": [
  ["CC(C)(C)C(=O)N[C@H]1CC/C=C/[C@H]2CNC(=O)[C@H]2C[C@@H](C#N)NC(=O)[C@@H]2[C@@H]3[C@H](CN2C1=O)C3(C)C", "SARS-CoV-2 3CLpro (Severe acute respiratory syndrome coronavirus 2, UniProt P0DTD1)", "< 0.1 µM"],
  ["CC1(C)[C@@H]2[C@H]3C(=O)N[C@H](C#N)C[C@@H]4C(=O)NC[C@@H]4CCCC[C@H](NS(=O)(=O)C4CC4)C(=O)N3C[C@@H]21", "SARS-CoV-2 3CLpro (Severe acute respiratory syndrome coronavirus 2, UniProt P0DTD1)", "< 0.1 µM"],
  ["CC(C)C[C@@H]1NC(=O)[C@@H](Cc2ccccc2)CCCCC[C@@H]2CNC(=O)[C@@H]2C[C@@H](C#N)NC1=O", "SARS-CoV-2 3CLpro (Severe acute respiratory syndrome coronavirus 2, UniProt P0DTD1)", "> 20 µM"],
  ["CC(C)(C)OC(=O)N[C@H]1CC/C=C/[C@H]2CCNC(=O)[C@H]2C[C@@H](C#N)NC(=O)[C@@H]2[C@H]3CCC[C@H]3CN2C1=O", "SARS-CoV-2 3CLpro (Severe acute respiratory syndrome coronavirus 2, UniProt P0DTD1)", "0.1 to 1 µM"],
  ["CC(C)(C)OC(=O)N[C@H]1CCCC[C@H]2CCNC(=O)C2C[C@@H](C#N)NC(=O)[C@@H]2[C@H]3CCC[C@H]3CN2C1=O (some centres unmarked)", "SARS-CoV-2 3CLpro (Severe acute respiratory syndrome coronavirus 2, UniProt P0DTD1)", "0.1 to 1 µM"],
  ["CC(C)C[C@@H]1NC(=O)CCCC[C@H]2CNC(=O)[C@@H]2C[C@@H](C=O)NC1=O", "SARS-CoV-2 3CLpro (Severe acute respiratory syndrome coronavirus 2, UniProt P0DTD1)", "< 0.1 µM"],
  ["CC(C)C[C@@H]1NC(=O)[C@@H](NC(=O)C(C)(C)C)CCCC[C@H]2CNC(=O)[C@@H]2C[C@@H](C#N)NC1=O", "SARS-CoV-2 3CLpro (Severe acute respiratory syndrome coronavirus 2, UniProt P0DTD1)", "0.1 to 1 µM"],
  ["CC(C)C[C@@H]1NC(=O)CCCCC[C@H]2CNC(=O)[C@@H]2C[C@@H](C=O)NC1=O", "SARS-CoV-2 3CLpro (Severe acute respiratory syndrome coronavirus 2, UniProt P0DTD1)", "0.1 to 1 µM"]
]}

====

- target.under.test: SARS-CoV-2 3CLpro (Severe acute respiratory syndrome coronavirus 2, UniProt P0DTD1)
- procedure.details: FRET based protease assay, SARS-CoV-2 3CL
pIC50: −log10 of the molar value.

{"columns": ["mol", "target.under.test", "pIC50"],
 "data": [
  ["CC(C)(C)NC(=O)[C@H]1CCCC[C@H]2CNC(=O)[C@H]2C[C@@H](C#N)NC(=O)[C@@H]2[C@@H]3[C@H](CN2C1=O)C3(C)C", "SARS-CoV-2 3CLpro (Severe acute respiratory syndrome coronavirus 2, UniProt P0DTD1)", "6.00 to 7.00"],
  ["CC1(C)[C@@H]2[C@H]3C(=O)N[C@H](C#N)C[C@@H]4C(=O)NC[C@@H]4CCCC[C@H](NC(=O)C(C)(C)C(F)(F)F)C(=O)N3C[C@@H]21", "SARS-CoV-2 3CLpro (Severe acute respiratory syndrome coronavirus 2, UniProt P0DTD1)", "> 7.00"],
  ["CC(C)(C)C(=O)N[C@H]1CCCC[C@H]2CNC(=O)[C@@H]2C[C@@H](C#N)NC(=O)[C@@H]2[C@@H]3[C@H](CN2C1=O)C3(C)C", "SARS-CoV-2 3CLpro (Severe acute respiratory syndrome coronavirus 2, UniProt P0DTD1)", "6.00 to 7.00"],
  ["CC(C)(C)OC(=O)N[C@H]1CCCC[C@H]2CNC(=O)[C@H]2C[C@@H](C#N)NC(=O)[C@@H]2[C@H]3CC[C@H](C3)N2C1=O", "SARS-CoV-2 3CLpro (Severe acute respiratory syndrome coronavirus 2, UniProt P0DTD1)", "4.70 to 6.00"],
  ["CC(C)(C)C(=O)N[C@H]1CCCC[C@H]2CNC(=O)[C@H]2C[C@@H](C#N)NC(=O)[C@@H]2[C@@H]3[C@H](CN2C1=O)C3(C)C", "SARS-CoV-2 3CLpro (Severe acute respiratory syndrome coronavirus 2, UniProt P0DTD1)", "> 7.00"],
  ["CC1(C)[C@@H]2[C@H]3C(=O)N[C@H](C#N)C[C@@H]4C(=O)NCC[C@@H]4CCCC[C@H](NC(=O)C45CC(C(F)(F)F)(C4)C5)C(=O)N3C[C@@H]21", "SARS-CoV-2 3CLpro (Severe acute respiratory syndrome coronavirus 2, UniProt P0DTD1)", "6.00 to 7.00"],
  ["CC(C)C[C@@H]1NC(=O)[C@@H](NC(=O)C(C)(C)C)CC/C=C\\[C@H]2CNC(=O)[C@H]2C[C@@H](C#N)NC1=O", "SARS-CoV-2 3CLpro (Severe acute respiratory syndrome coronavirus 2, UniProt P0DTD1)", "6.00 to 7.00"],
  ["CC(C)C[C@@H]1NC(=O)[C@@H](Cc2ccccc2)CCCC[C@H]2CNC(=O)[C@@H]2C[C@@H](C=O)NC1=O", "SARS-CoV-2 3CLpro (Severe acute respiratory syndrome coronavirus 2, UniProt P0DTD1)", "> 7.00"]
]}

====

- target.under.test: SARS-CoV-2 3CLpro (Severe acute respiratory syndrome coronavirus 2)
- procedure.details: FRET based protease assay, SARS-CoV-2 3CL
attribute.measured: IC50

{"columns": ["mol", "target.under.test", "measurement"],
 "data": [
  ["CC1(C(=O)N[C@H]2CCCC[C@H]3CNC(=O)[C@H]3C[C@@H](C#N)NC(=O)[C@@H]3[C@@H]4[C@H](CN3C2=O)C4(C)C)CCC1", "SARS-CoV-2 3CLpro (Severe acute respiratory syndrome coronavirus 2)", "< 100 nM"],
  ["N#C[C@@H]1C[C@@H]2C(=O)NC[C@@H]2CCCC[C@H](NC(=O)C2CC(F)(F)C2)C(=O)N2C[C@@H]3CCC[C@@H]3[C@H]2C(=O)N1", "SARS-CoV-2 3CLpro (Severe acute respiratory syndrome coronavirus 2)", "< 100 nM"],
  ["N#C[C@@H]1C[C@@H]2C(=O)NC[C@@H]2CCCC[C@H](NC(=O)C2(C(F)(F)F)CC2)C(=O)N2CCC3(CC3)C[C@H]2C(=O)N1", "SARS-CoV-2 3CLpro (Severe acute respiratory syndrome coronavirus 2)", "< 100 nM"],
  ["CC1(C)[C@@H]2[C@H]3C(=O)N[C@H](C#N)C[C@@H]4C(=O)NC[C@@H]4CCCC[C@H](Nc4ccnc(C(F)(F)F)n4)C(=O)N3C[C@@H]21", "SARS-CoV-2 3CLpro (Severe acute respiratory syndrome coronavirus 2)", "< 100 nM"],
  ["CC1(C)[C@@H]2[C@H]3C(=O)N[C@H](C#N)C[C@H]4C(=O)NC[C@@H]4CCCCC(=O)N3C[C@@H]21", "SARS-CoV-2 3CLpro (Severe acute respiratory syndrome coronavirus 2)", "1000 to 20000 nM"],
  ["CC(C)(C)OC(=O)N[C@H]1CCCC[C@H]2CNC(=O)[C@H]2C[C@@H](C#N)NC(=O)[C@@H]2[C@H]3CC[C@H](CC3)N2C1=O", "SARS-CoV-2 3CLpro (Severe acute respiratory syndrome coronavirus 2)", "100 to 1000 nM"]
]}

====

- target.under.test: UniProt:P0DTD1
- procedure.details: FRET based protease assay, SARS-CoV-2 3CL
pIC50: −log10 of the molar value.
attribute.measured: pIC50

{"columns": ["mol", "attribute.measured", "measurement"],
 "data": [
  ["CC1(C)[C@@H]2[C@H]3C(=O)N[C@H](C#N)C[C@@H]4C(=O)NC[C@@H]4CCCC[C@H](N)C(=O)N3C[C@@H]21", "pIC50", "6.00 to 7.00"],
  ["CC(C)(C)CC(=O)N[C@H]1CCCC[C@H]2CCNC(=O)[C@H]2C[C@@H](C#N)NC(=O)[C@@H]2[C@H]3CCC[C@H]3CN2C1=O", "pIC50", "> 7.00"],
  ["CC(C)(C)OC(=O)N[C@H]1CCCC[C@H]2CNC(=O)[C@H]2C[C@@H](C#N)NC(=O)[C@@H]2CC3(CCN2C1=O)CC3", "pIC50", "> 7.00"],
  ["CC1(C)[C@@H]2[C@H]3C(=O)N[C@H](C#N)C[C@@H]4C(=O)NC[C@@H]4CCCC[C@H](NC(=O)C4CCC4)C(=O)N3C[C@@H]21", "pIC50", "> 7.00"],
  ["CC(C)C[C@@H]1NC(=O)[C@@H](CC2CCCC2)CCC[C@H]2CNC(=O)[C@@H]2C[C@@H](C=O)NC1=O", "pIC50", "6.00 to 7.00"],
  ["CC(C)(C)OC(=O)N[C@H]1CCCC[C@H]2CNC(=O)[C@H]2C[C@@H](C#N)NC(=O)[C@@H]2CCCCCN2C1=O", "pIC50", "6.00 to 7.00"],
  ["CC1(C)[C@@H]2[C@H]3C(=O)N[C@H](C#N)C[C@@H]4C(=O)NC[C@@H]4CCCC[C@H](NC(=O)C4CCCCC4)C(=O)N3C[C@@H]21", "pIC50", "> 7.00"],
  ["CC(C)C[C@@H]1NC(=O)[C@@H](NC(=O)OC(C)(C)C)CCCC[C@H]2CNC(=O)[C@H]2C[C@@H](C#N)NC1=O", "pIC50", "6.00 to 7.00"]
]}
